# assayed-target: human TLR-7 (Homo sapiens, UniProt Q9NYK1)
# Sequence (Q9NYK1 27-1049): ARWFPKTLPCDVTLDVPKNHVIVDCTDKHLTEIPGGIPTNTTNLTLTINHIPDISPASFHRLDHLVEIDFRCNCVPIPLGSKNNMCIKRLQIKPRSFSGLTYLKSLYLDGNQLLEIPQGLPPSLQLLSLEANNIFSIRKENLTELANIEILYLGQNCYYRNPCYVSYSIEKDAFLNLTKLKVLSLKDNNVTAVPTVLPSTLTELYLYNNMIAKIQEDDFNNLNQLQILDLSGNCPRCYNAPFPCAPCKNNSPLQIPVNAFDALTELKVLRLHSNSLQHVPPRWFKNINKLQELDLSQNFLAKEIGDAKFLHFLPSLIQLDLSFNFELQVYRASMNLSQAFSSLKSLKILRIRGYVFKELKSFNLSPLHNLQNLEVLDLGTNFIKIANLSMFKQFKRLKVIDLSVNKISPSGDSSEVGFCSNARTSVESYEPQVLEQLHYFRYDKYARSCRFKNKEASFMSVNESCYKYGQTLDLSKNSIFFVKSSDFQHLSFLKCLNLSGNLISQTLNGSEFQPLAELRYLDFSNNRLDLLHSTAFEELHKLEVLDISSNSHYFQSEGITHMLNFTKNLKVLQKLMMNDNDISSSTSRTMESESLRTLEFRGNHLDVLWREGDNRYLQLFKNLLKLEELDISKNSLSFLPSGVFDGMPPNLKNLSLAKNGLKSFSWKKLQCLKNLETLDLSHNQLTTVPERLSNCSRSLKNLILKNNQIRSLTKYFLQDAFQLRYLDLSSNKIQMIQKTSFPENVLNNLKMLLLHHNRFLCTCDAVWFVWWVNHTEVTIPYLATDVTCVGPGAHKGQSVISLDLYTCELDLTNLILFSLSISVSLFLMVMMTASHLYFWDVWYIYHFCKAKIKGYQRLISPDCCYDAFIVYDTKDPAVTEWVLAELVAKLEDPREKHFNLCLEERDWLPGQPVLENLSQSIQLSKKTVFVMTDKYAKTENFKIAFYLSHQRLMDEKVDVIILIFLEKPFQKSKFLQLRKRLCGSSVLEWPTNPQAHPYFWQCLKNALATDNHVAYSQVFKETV
# test-name: TLR7/8-NF-κB Reporter Assay (HEK SEAP Reporter Assay), HEK-TLR-7 cells
# condition-summary: HEK cells stably transfected with human TLR-7 and NF-κB-responsive SEAP gene, 24 h
EC50 under 4 µM gets fulfilled, anything at or over 4 µM gets not fulfilled.

# structure-string, group-label
records = [
    ("CCCCc1nc2c(N)nc3cc(C(=O)OC)ccc3c2n1CCCCC(=O)OC", "fulfilled"),
    ("CCCCc1nc2c(N)nc3cc(C(=O)OC)ccc3c2n1CCC(=O)OC", "fulfilled"),
    ("CCCCc1nc2c(N)nc3cc(C(=O)OC)ccc3c2n1CCSCC", "not fulfilled"),
    ("CCCCc1nc2c(N)nc3cc(C(=O)OC)ccc3c2n1CCCCCN", "fulfilled"),
    ("CCCCc1nc2c(N)nc3cc(C(=O)OC)ccc3c2n1CCCSC", "fulfilled"),
]

Cited source: patent US11279701B2
